Values compiled from PubChem BioAssay (EPA / NIEHS).

target: Cellular tumor antigen p53 (Homo sapiens) (UniProt P04637); assay: TOX21_p53_BLA_p5_ratio: Tox21 HCT-116 p53 Agonism Beta-lactamase Assay, Ratio, Phase 5 (AID 2283599)
Sequence (P04637 whole entry, looked up): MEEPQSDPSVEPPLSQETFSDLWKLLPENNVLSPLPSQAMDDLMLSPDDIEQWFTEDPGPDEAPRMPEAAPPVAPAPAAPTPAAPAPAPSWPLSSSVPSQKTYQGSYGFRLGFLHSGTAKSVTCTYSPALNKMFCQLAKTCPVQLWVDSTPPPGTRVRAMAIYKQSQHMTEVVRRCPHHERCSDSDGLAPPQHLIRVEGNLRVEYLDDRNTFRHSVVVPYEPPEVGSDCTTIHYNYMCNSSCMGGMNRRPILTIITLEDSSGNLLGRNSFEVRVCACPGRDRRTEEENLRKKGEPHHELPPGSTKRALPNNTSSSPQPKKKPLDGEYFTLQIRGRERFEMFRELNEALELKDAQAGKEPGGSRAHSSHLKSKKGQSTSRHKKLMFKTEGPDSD
Inconclusive results are not listed. The source made the active and inactive calls. Rule for the calls: active = hit-call score of the fitted dose curve at least 0.9, where 1 is the maximum; inconclusive = response in the unintended direction; inactive = score below 0.9.
endpoint-name: AC50

// solved cases for AC50 follow
item-smiles | AC50
CC(=O)O[C@H]1C(=O)[C@@]2(C)[C@H]([C@H](OC(=O)c3ccccc3)[C@]3(O)C[C@H](OC(=O)[C@H](O)[C@@H](NC(=O)c4ccccc4)c4ccccc4)C(C)=C1C3(C)C)[C@]1(OC(C)=O)CO[C@@H]1C[C@@H]2O | 4.57 µM (active)
SCCCCCCCCS | inactive
Nc1ccc2cc(S(=O)(=O)O)cc(O)c2c1 | inactive
Brc1ccccc1-c1ccccc1 | inactive
CCCCCCCC | inactive
NC(=O)[C@H]1O[C@@H](O)[C@H](O)[C@@H](O)[C@@H]1O | inactive

Would you kindly share the measured AC50 for COc1ccc(C(=O)CC(=O)c2ccc(C(C)(C)C)cc2)cc1 ? inactive

Would you kindly share the measured AC50 for N=c1nc(N2CCCCC2)cc(N)n1O ? inactive

Would you kindly share the measured AC50 for CC(=O)N[C@@H](CCC(N)=O)C(=O)O ? inactive

Would you kindly share the measured AC50 for O=C(O)c1cccc(Cl)c1Cl ? inactive

Would you kindly share the measured AC50 for CCCCCCOc1ccccc1C(N)=O ? inactive

Would you kindly share the measured AC50 for CC(C)(S)C(=O)N[C@@H](CS)C(=O)O ? inactive

Would you kindly share the measured AC50 for Nc1nc2[nH]cc(CCc3ccc(C(=O)N[C@@H](CCC(=O)O)C(=O)O)cc3)c2c(=O)[nH]1 ? inactive

====

molecular target: Cellular tumor antigen p53 (Homo sapiens); assay: TOX21_p53_BLA_p4_ratio: Tox21 HCT-116 p53 Agonism Beta-lactamase Assay, Ratio, Phase 4 (AID 2283601)
Inconclusive results are not listed. Activity calls are given as the source filed them. How the source made its calls: active means hit-call score of the fitted dose curve at least 0.9, where 1 is the maximum; inconclusive means response in the unintended direction; inactive means score below 0.9.
API: response.call in label 1 = active, label 0 = inactive

Below are worked cases with known answers.
compound | study-target | category
COc1ccc(C)cc1 | Cellular tumor antigen p53 (Homo sapiens) | label 0
NCCOCCN | Cellular tumor antigen p53 (Homo sapiens) | label 0
CCCCCCCCCCCCN(CCO)CCO | Cellular tumor antigen p53 (Homo sapiens) | label 1
CO[C@H]1/C=C/O[C@@]2(C)Oc3c(C)c(O)c4c(O)c(cc(O)c4c3C2=O)NC(=O)/C(C)=C\C=C\[C@H](C)[C@H](O)[C@@H](C)[C@@H](O)[C@@H](C)[C@H](OC(C)=O)[C@@H]1C | Cellular tumor antigen p53 (Homo sapiens) | label 0
CC(=O)N1C[C@H](O)C[C@H]1C(=O)O | Cellular tumor antigen p53 (Homo sapiens) | label 0

Dear colleague, could you share the recorded outcome for CCOc1nc2cccc(C(=O)O)c2n1Cc1ccc(-c2ccccc2-c2nn[nH]n2)cc1 when you have a moment? label 0

Dear colleague, could you share the recorded outcome for CC(C)NCC(O)c1ccc(NS(C)(=O)=O)cc1 (stereo not drawn) when you have a moment? label 0

Dear colleague, could you share the recorded outcome for O=C(Nc1ccc(Br)cc1)c1cc(Br)c(Br)s1 when you have a moment? label 0

Dear colleague, could you share the recorded outcome for CC[C@@H](C)[C@H](N)C(=O)O when you have a moment? label 0

Dear colleague, could you share the recorded outcome for CCCCCC1CCCC(=O)O1 (stereo not drawn) when you have a moment? label 0
